tested on: Hepatitis C virus; assay: Antiviral activity against HCV assessed as inhibition of viral replication by luciferase assay; type: functional, organism-based, Hepacivirus hominis
pEC50: −log10 of the molar value.
# pEC50 annotations
assayMetric: pEC50

Cc1ccc(COc2cc(O)c3c(=O)c(O)c(-c4ccccc4)oc3c2)cc1 5.22
COc1ccccc1COc1cc(O)c2c(=O)c(O)c(-c3ccccc3)oc2c1 4.28
O=c1c(O)c(-c2ccccc2)oc2cc(OCc3ccccc3[N+](=O)[O-])cc(O)c12 4.60
N#Cc1ccc(COc2cc(O)c3c(=O)c(O)c(-c4ccccc4)oc3c2)cc1 4.72
O=c1c(O)c(-c2ccccc2)oc2cc(OCc3cccc(Cl)c3)cc(O)c12 4.66
O=c1c(O)c(-c2ccccc2)oc2cc(OCc3cccc([N+](=O)[O-])c3)cc(O)c12 5.70
O=c1c(O)c(-c2ccccc2)oc2cc(OCc3ccc([N+](=O)[O-])cc3)cc(O)c12 5.00
O=C(O)/C(O)=C/C(=O)c1cccc(NCc2ccc(Cl)cc2)c1 6.09
O=c1c(O)c(-c2ccccc2)oc2cc(OCc3ccc(Cl)cc3)cc(O)c12 5.10
COc1ccc(COc2cc(O)c3c(=O)c(O)c(-c4ccccc4)oc3c2)cc1 4.42

====

test: Cytotoxicity against human Huh5-2 cells after 3 days by WST-1 assay; format: cell-based, Huh-5-2
Overview of reported CC50 at 72 h across a group of molecules:
assayMetric: CC50 at 72 h (µM)

N#Cc1cccc(COc2cc(O)c3c(=O)c(O)c(-c4ccccc4)oc3c2)c1 72
O=c1c(O)c(-c2ccccc2)oc2cc(OCc3cccc([N+](=O)[O-])c3)cc(O)c12 76
COc1ccc(-c2oc3cc(OCc4ccc(Cl)cc4)cc(O)c3c(=O)c2O)cc1 64

====

test system: Hepatitis C virus; test: Antiviral activity against HCV assessed as inhibition of viral replication by luciferase assay; type: functional, organism-based, Hepacivirus hominis
Field 'label' (enum: criterion met / criterion not met). Set to criterion met when EC50 is strictly under 7 µM; else criterion not met.

O=c1c(O)c(-c2ccc(C(F)(F)F)cc2)oc2cc(OCc3ccc(Cl)cc3)cc(O)c12 criterion met
N#Cc1ccccc1COc1cc(O)c2c(=O)c(O)c(-c3ccccc3)oc2c1 criterion not met
COc1cccc(COc2cc(O)c3c(=O)c(O)c(-c4ccccc4)oc3c2)c1 criterion not met
N#Cc1ccc(-c2oc3cc(OCc4ccc(Cl)cc4)cc(O)c3c(=O)c2O)cc1 criterion met
O=c1c(O)c(-c2ccccc2)oc2cc(OCc3ccccc3Cl)cc(O)c12 criterion not met
O=c1c(O)c(-c2ccccc2)oc2cc(OCc3ccccc3Br)cc(O)c12 criterion not met
O=c1c(O)c(-c2ccccc2)oc2cc(OCc3ccc(Br)cc3)cc(O)c12 criterion met
Cc1cccc(COc2cc(O)c3c(=O)c(O)c(-c4ccccc4)oc3c2)c1 criterion not met
COc1ccc(-c2oc3cc(OCc4ccc(Cl)cc4)cc(O)c3c(=O)c2O)cc1 criterion met
O=c1c(O)c(-c2ccccc2)oc2cc(OCc3cccc(Br)c3)cc(O)c12 criterion not met
N#Cc1cccc(COc2cc(O)c3c(=O)c(O)c(-c4ccccc4)oc3c2)c1 criterion met
